settings: in acetone, 313.15 K
Quantity name: solubility (mole fraction)
Numbers only.

Query :: Consider the compound CCOC(=O)C1=C(C)NC(C)=C(C(=O)OCC)C1 . State its measured solubility (mole fraction).
Result :: 0.0119

====

settings: in n-propanol, 318.15 K
Quantity name: solubility (mole fraction)
Numbers only.

Query :: Consider the compound CCOC(=O)C1=C(C)NC(C)=C(C(=O)OCC)C1 . State its measured solubility (mole fraction).
Result :: 0.00613

====

settings: in ethyl acetate, 272.15 K
Quantity name: solubility (mole fraction)
Numbers only.

Query :: Consider the compound CCOC(=O)C1=C(C)NC(C)=C(C(=O)OCC)C1 . State its measured solubility (mole fraction).
Result :: 0.00135

====

conditions: in isobutanol, 312.35 K
Quantity name: solubility (mole fraction)
Give bare numbers.

Query :: Consider the compound CCOC(=O)C1=C(C)NC(C)=C(C(=O)OCC)C1 . State its measured solubility (mole fraction).
Result :: 0.00863

====

conditions: in methyl acetate, 308.25 K
Quantity name: solubility (mole fraction)
One number for each entry.

Query :: Consider the compound CCOC(=O)C1=C(C)NC(C)=C(C(=O)OCC)C1 . State its measured solubility (mole fraction).
Result :: 0.00679

====

conditions: in n-pentanol, 283.15 K
Quantity name: solubility (mole fraction)
Numbers only.

Query :: Consider the compound CCOC(=O)C1=C(C)NC(C)=C(C(=O)OCC)C1 . State its measured solubility (mole fraction).
Result :: 0.00126

====

settings: in n-butanol, 312.35 K
Quantity name: solubility (mole fraction)
Give bare numbers.

Query :: Consider the compound CCOC(=O)C1=C(C)NC(C)=C(C(=O)OCC)C1 . State its measured solubility (mole fraction).
Result :: 0.00528

====

settings: in toluene, 318.15 K
Quantity name: solubility (mole fraction)
Answers are plain numbers.

Query :: Consider the compound CCOC(=O)C1=C(C)NC(C)=C(C(=O)OCC)C1 . State its measured solubility (mole fraction).
Result :: 0.0026

====

conditions: in isobutanol, 308.05 K
Quantity name: solubility (mole fraction)

Query :: Consider the compound CCOC(=O)C1=C(C)NC(C)=C(C(=O)OCC)C1 . State its measured solubility (mole fraction).
Result :: 0.00684

====

settings: in ethanol, 318.15 K
Quantity name: solubility (mole fraction)
Give bare numbers.

Query :: Consider the compound CCOC(=O)C1=C(C)NC(C)=C(C(=O)OCC)C1 . State its measured solubility (mole fraction).
Result :: 0.00472

====

details: in ethyl formate, 272.15 K
Quantity name: solubility (mole fraction)

Query :: Consider the molecule CCOC(=O)C1=C(C)NC(C)=C(C(=O)OCC)C1 . State its measured solubility (mole fraction).
Result :: 0.00082

====

conditions: in ethyl acetate, 318.15 K
Quantity name: solubility (mole fraction)
One number for each entry.

Query :: Consider the molecule CCOC(=O)C1=C(C)NC(C)=C(C(=O)OCC)C1 . State its measured solubility (mole fraction).
Result :: 0.0155

====

details: in acetonitrile, 288.15 K
Quantity name: solubility (mole fraction)

Query :: Consider the compound CCOC(=O)C1=C(C)NC(C)=C(C(=O)OCC)C1 . State its measured solubility (mole fraction).
Result :: 0.000687

====

conditions: in n-butanol, 272.15 K
Quantity name: solubility (mole fraction)
Answers are plain numbers.

Query :: Consider the compound CCOC(=O)C1=C(C)NC(C)=C(C(=O)OCC)C1 . State its measured solubility (mole fraction).
Result :: 0.000605

====

conditions: in methanol, 293.05 K
Quantity name: solubility (mole fraction)
One number for each entry.

Query :: Consider the compound CCOC(=O)C1=C(C)NC(C)=C(C(=O)OCC)C1 . State its measured solubility (mole fraction).
Result :: 0.000865

====

conditions: in ethyl acetate, 313.15 K
Quantity name: solubility (mole fraction)
Answers are plain numbers.

Query :: Consider the compound CCOC(=O)C1=C(C)NC(C)=C(C(=O)OCC)C1 . State its measured solubility (mole fraction).
Result :: 0.0123

====

settings: in 2-pentanone, 283.15 K
Quantity name: solubility (mole fraction)
Answers are plain numbers.

Query :: Consider the molecule CCOC(=O)C1=C(C)NC(C)=C(C(=O)OCC)C1 . State its measured solubility (mole fraction).
Result :: 0.00353

====

settings: in isopentanol, 293.05 K
Quantity name: solubility (mole fraction)
One number for each entry.

Query :: Consider the compound CCOC(=O)C1=C(C)NC(C)=C(C(=O)OCC)C1 . State its measured solubility (mole fraction).
Result :: 0.00254

====

settings: in n-propanol, 288.15 K
Quantity name: solubility (mole fraction)
Answers are plain numbers.

Query :: Consider the compound CCOC(=O)C1=C(C)NC(C)=C(C(=O)OCC)C1 . State its measured solubility (mole fraction).
Result :: 0.00133

====

conditions: in 2-butanone, 272.15 K
Quantity name: solubility (mole fraction)
Give bare numbers.

Query :: Consider the molecule CCOC(=O)C1=C(C)NC(C)=C(C(=O)OCC)C1 . State its measured solubility (mole fraction).
Result :: 0.00182

====

details: in ethanol, 308.05 K
Quantity name: solubility (mole fraction)
Give bare numbers.

Query :: Consider the compound CCOC(=O)C1=C(C)NC(C)=C(C(=O)OCC)C1 . State its measured solubility (mole fraction).
Result :: 0.00294

====

conditions: in toluene, 308.25 K
Quantity name: solubility (mole fraction)
Give bare numbers.

Query :: Consider the compound CCOC(=O)C1=C(C)NC(C)=C(C(=O)OCC)C1 . State its measured solubility (mole fraction).
Result :: 0.00151

====

conditions: in toluene, 288.15 K
Quantity name: solubility (mole fraction)
Answers are plain numbers.

Query :: Consider the molecule CCOC(=O)C1=C(C)NC(C)=C(C(=O)OCC)C1 . State its measured solubility (mole fraction).
Result :: 0.000449

====

details: in methanol, 277.95 K
Quantity name: solubility (mole fraction)
One number for each entry.

Query :: Consider the compound CCOC(=O)C1=C(C)NC(C)=C(C(=O)OCC)C1 . State its measured solubility (mole fraction).
Result :: 0.000355

====

conditions: in n-butanol, 283.15 K
Quantity name: solubility (mole fraction)
Answers are plain numbers.

Query :: Consider the molecule CCOC(=O)C1=C(C)NC(C)=C(C(=O)OCC)C1 . State its measured solubility (mole fraction).
Result :: 0.00116

====

settings: in n-propanol, 293.05 K
Quantity name: solubility (mole fraction)
One number for each entry.

Query :: Consider the molecule CCOC(=O)C1=C(C)NC(C)=C(C(=O)OCC)C1 . State its measured solubility (mole fraction).
Result :: 0.00174

====

details: in n-pentanol, 312.35 K
Quantity name: solubility (mole fraction)
Numbers only.

Query :: Consider the compound CCOC(=O)C1=C(C)NC(C)=C(C(=O)OCC)C1 . State its measured solubility (mole fraction).
Result :: 0.00597

====

settings: in isopentanol, 283.15 K
Quantity name: solubility (mole fraction)
Give bare numbers.

Query :: Consider the compound CCOC(=O)C1=C(C)NC(C)=C(C(=O)OCC)C1 . State its measured solubility (mole fraction).
Result :: 0.00139

====

conditions: in 2-pentanone, 313.15 K
Quantity name: solubility (mole fraction)

Query :: Consider the compound CCOC(=O)C1=C(C)NC(C)=C(C(=O)OCC)C1 . State its measured solubility (mole fraction).
Result :: 0.0202

====

settings: in n-butanol, 303.15 K
Quantity name: solubility (mole fraction)
Answers are plain numbers.

Query :: Consider the molecule CCOC(=O)C1=C(C)NC(C)=C(C(=O)OCC)C1 . State its measured solubility (mole fraction).
Result :: 0.00338

====

settings: in isopentanol, 312.35 K
Quantity name: solubility (mole fraction)

Query :: Consider the molecule CCOC(=O)C1=C(C)NC(C)=C(C(=O)OCC)C1 . State its measured solubility (mole fraction).
Result :: 0.00738

====

settings: in ethanol, 312.35 K
Quantity name: solubility (mole fraction)
Give bare numbers.

Query :: Consider the compound CCOC(=O)C1=C(C)NC(C)=C(C(=O)OCC)C1 . State its measured solubility (mole fraction).
Result :: 0.00362

====

details: in methyl acetate, 323.65 K
Quantity name: solubility (mole fraction)
Numbers only.

Query :: Consider the compound CCOC(=O)C1=C(C)NC(C)=C(C(=O)OCC)C1 . State its measured solubility (mole fraction).
Result :: 0.0134

====

conditions: in methanol, 323.15 K
Quantity name: solubility (mole fraction)

Query :: Consider the compound CCOC(=O)C1=C(C)NC(C)=C(C(=O)OCC)C1 . State its measured solubility (mole fraction).
Result :: 0.004

====

details: in acetone, 308.25 K
Quantity name: solubility (mole fraction)
One number for each entry.

Query :: Consider the compound CCOC(=O)C1=C(C)NC(C)=C(C(=O)OCC)C1 . State its measured solubility (mole fraction).
Result :: 0.00926

====

settings: in methyl acetate, 272.15 K
Quantity name: solubility (mole fraction)
Answers are plain numbers.

Query :: Consider the compound CCOC(=O)C1=C(C)NC(C)=C(C(=O)OCC)C1 . State its measured solubility (mole fraction).
Result :: 0.00103

====

settings: in isopropanol, 293.05 K
Quantity name: solubility (mole fraction)
Answers are plain numbers.

Query :: Consider the compound CCOC(=O)C1=C(C)NC(C)=C(C(=O)OCC)C1 . State its measured solubility (mole fraction).
Result :: 0.00158
